The measured values listed here are drawn from paper PMC10291553.

Tested on: A2780cis cells
Test: Photo- and cytotoxic activity determination (MTT), A2780cis cells, normoxia or hypoxia
Type: cell-based
Settings: normoxia; 1 h incubation + 1 h green light 520 nm, 1.5 mW cm^–2; 48 h drug-free medium; read-out: A2780cis light IC50
ASSAY_METRIC: IC50 (nM)
One number for each entry, in nM.

Supply IC50 value. Item: CCCCn1c2[n+](c3cc(C(=O)NCCCNC(=O)C[n+]4ccc(/C(C#N)=C5/C=C(C)c6cc7c8c(c6O5)CCCN8CCC7)cc4)ccc31)[Ir-3]13([c]4ccccc4-c4[nH]c5ccccc5[n+]41)([c]1ccccc1-c1[nH]c4ccccc4[n+]13)[n+]1c-2ccc2ccccc21 1040

Quick request: IC50 for each listed item, please.
1. CCCCn1c2[n+](c3cc(C(=O)OC)ccc31)[Ir-3]13([c]4ccccc4-c4[nH]c5ccccc5[n+]41)([c]1ccccc1-c1[nH]c4ccccc4[n+]13)[n+]1c-2ccc2ccccc21
2. CCCCn1c2[n+](c3cc(C(=O)NCCCCCC(=O)NCCCNC(=O)C[n+]4ccc(/C(C#N)=C5/C=C(C)c6ccc(N(CC)CC)cc6O5)cc4)ccc31)[Ir-3]13([c]4ccccc4-c4[nH]c5ccccc5[n+]41)([c]1ccccc1-c1[nH]c4ccccc4[n+]13)[n+]1c-2ccc2ccccc21

1: 3500; 2: 1100

Report measured IC50; entry is CCCCn1c2[n+](c3cc(C(=O)NCCCNC(=O)C[n+]4ccc(/C(C#N)=C5/C=C(C)c6ccc(N(CC)CC)cc6O5)cc4)ccc31)[Ir-3]13([c]4ccccc4-c4[nH]c5ccccc5[n+]41)([c]1ccccc1-c1[nH]c4ccccc4[n+]13)[n+]1c-2ccc2ccccc21 700

* * *

Can you tell me IC50 for the items I'm about to list?
Tested on: A2780cis cells
Test: Photo- and cytotoxic activity determination (MTT), A2780cis cells, normoxia or hypoxia
Type: cell-based
Conditions: hypoxia; 520 nm; read-out: A2780cis Light 520 nm IC50 (microM) Hypoxia

Entry CCCCn1c2[n+](c3cc(C(=O)NCCCNC(=O)C[n+]4ccc(/C(C#N)=C5/C=C(C)c6cc7c8c(c6O5)CCCN8CCC7)cc4)ccc31)[Ir-3]13([c]4ccccc4-c4[nH]c5ccccc5[n+]41)([c]1ccccc1-c1[nH]c4ccccc4[n+]13)[n+]1c-2ccc2ccccc21 needs its IC50 filled in; supply it. 8 µM

More entries:
Write down IC50 measured for item CCCCn1c2[n+](c3cc(C(=O)OC)ccc31)[Ir-3]13([c]4ccccc4-c4[nH]c5ccccc5[n+]41)([c]1ccccc1-c1[nH]c4ccccc4[n+]13)[n+]1c-2ccc2ccccc21 11 µM

* * *

Test system: A2780cis cells
Assay: Photo- and cytotoxic activity determination (MTT), A2780cis cells, normoxia or hypoxia
Type: cell-based
Settings: A2780cis; normoxia; dark; up to 250 microM; read-out: A2780cis Dark IC50 (microM) Normoxia
pIC50: −log10 of the molar value.
What pIC50 was measured for each of the following?

Give the reported pIC50 for this compound. CC1=C/C(=C(\C#N)c2cc[n+](C)cc2)Oc2ccccc21 < 3.60

Give the value of pIC50 reported for the following: CCN(CC)c1ccc2c(c1)O/C(=C(/C#N)c1cc[n+](C)cc1)C=C2C < 3.60

Now for a further compound.
Answer with the recorded pIC50 of NCC(=O)CCC(=O)O [5-ALA, 5-aminolevulinic acid, reference compound] only. < 3.60

* * *

Tested on: A2780
Experiment: Photo- and cytotoxic activity determination (MTT), A2780 cells
Type: cell-based
Settings: normoxia; 520 nm; dark tested up to 100 μM
ASSAY_METRIC: A2780 PI (phototherapeutic index), IC50 dark/IC50 irradiated

Reference set (2 entries):
Complete the entry with A2780 PI (phototherapeutic index), IC50 dark/IC50 irradiated for CCCCn1c2[n+](c3cc(C(=O)NCCCNC(=O)C[n+]4ccc(/C(C#N)=C5/C=C(C)c6cc7c8c(c6O5)CCCN8CCC7)cc4)ccc31)[Ir-3]13([c]4ccccc4-c4[nH]c5ccccc5[n+]41)([c]1ccccc1-c1[nH]c4ccccc4[n+]13)[n+]1c-2ccc2ccccc21 [3c] > 48

Entry CC1=C/C(=C(\C#N)c2cc[n+](C)cc2)Oc2c1cc1c3c2CCCN3CCC1 [1c] needs its A2780 PI (phototherapeutic index), IC50 dark/IC50 irradiated filled in; supply it. 57

Now look at this entry.
Please report the measured A2780 PI (phototherapeutic index), IC50 dark/IC50 irradiated for CCN(CC)c1ccc2c(c1)O/C(=C(/C#N)c1cc[n+](C)cc1)C=C2C [1a] > 19
